Target: T1, GST-AF6 PDZ domain fusion protein (Homo sapiens (Human), UniProt P55196 1001-1093)
T1 construct: also called af-6 protein; not shown: glutathione S-transferase encoded by vector pGEX-3X (Pharmacia)
T1 sequence: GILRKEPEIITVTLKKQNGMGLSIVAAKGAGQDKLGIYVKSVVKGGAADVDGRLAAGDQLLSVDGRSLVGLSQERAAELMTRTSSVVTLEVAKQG
Assay: A/G assays
Ends that are not written are not given here. * marks the point of attachment. Biotin = O=C1N[C@H]2[C@H](CS[C@H]2CCCCC(=O)*)N1
PROPERTY MEASURED: binding result

1) Biotin-ARKANMKGSYSLVEAQKSKV (also called CD106) [VCAM1 C-terminal peptide AA17L, biotinylated]: no binding
2) Biotin-DLGNMEENKKLEENNHKTEA (also called CD166 (CD6L)) [CD166 C-terminal peptide AA20L, biotinylated]: no binding
3) Biotin-DTPSSSYTQSTMDHDLHDAL (Only the last four residues are seen in the excerpts) [CC CKR-4 C-terminal peptide AA44L]: no binding
4) Biotin-AWDDSARAAGGQGLHVTAL [LPAP C-terminal peptide AA30L, biotinylated]: no binding
5) Biotin-SPQPDSTDNDDYDDISAA [CD6 C-terminal peptide AA6L, biotinylated]: no binding

Prompt line: Report binding result, nothing else, for this binder: Biotin-ENLAPVTTFGKTNGYIA (also called CD148 (DEP-1)) [CD148 C-terminal peptide AA19L, biotinylated]
Response line: no binding

Prompt line: Input Biotin-SSGGRARHSYHHPDQDHWC (Marked (S), sticky peptide with high background; also called V-gated Ca2+ channel (S)) [V-gated Ca2+ channel C-terminal peptide AA46L] , output reported binding result.
Response line: no binding

Prompt line: Write down binding result measured for item Biotin-LNFPLLQGIRVHGMEALGSF (Only the last four residues are seen in the excerpts) [CD114 (G-CSFR) C-terminal peptide AA27L]
Response line: no binding
